# experimental.target: UniProt Q13523
# Sequence (Q13523 whole entry): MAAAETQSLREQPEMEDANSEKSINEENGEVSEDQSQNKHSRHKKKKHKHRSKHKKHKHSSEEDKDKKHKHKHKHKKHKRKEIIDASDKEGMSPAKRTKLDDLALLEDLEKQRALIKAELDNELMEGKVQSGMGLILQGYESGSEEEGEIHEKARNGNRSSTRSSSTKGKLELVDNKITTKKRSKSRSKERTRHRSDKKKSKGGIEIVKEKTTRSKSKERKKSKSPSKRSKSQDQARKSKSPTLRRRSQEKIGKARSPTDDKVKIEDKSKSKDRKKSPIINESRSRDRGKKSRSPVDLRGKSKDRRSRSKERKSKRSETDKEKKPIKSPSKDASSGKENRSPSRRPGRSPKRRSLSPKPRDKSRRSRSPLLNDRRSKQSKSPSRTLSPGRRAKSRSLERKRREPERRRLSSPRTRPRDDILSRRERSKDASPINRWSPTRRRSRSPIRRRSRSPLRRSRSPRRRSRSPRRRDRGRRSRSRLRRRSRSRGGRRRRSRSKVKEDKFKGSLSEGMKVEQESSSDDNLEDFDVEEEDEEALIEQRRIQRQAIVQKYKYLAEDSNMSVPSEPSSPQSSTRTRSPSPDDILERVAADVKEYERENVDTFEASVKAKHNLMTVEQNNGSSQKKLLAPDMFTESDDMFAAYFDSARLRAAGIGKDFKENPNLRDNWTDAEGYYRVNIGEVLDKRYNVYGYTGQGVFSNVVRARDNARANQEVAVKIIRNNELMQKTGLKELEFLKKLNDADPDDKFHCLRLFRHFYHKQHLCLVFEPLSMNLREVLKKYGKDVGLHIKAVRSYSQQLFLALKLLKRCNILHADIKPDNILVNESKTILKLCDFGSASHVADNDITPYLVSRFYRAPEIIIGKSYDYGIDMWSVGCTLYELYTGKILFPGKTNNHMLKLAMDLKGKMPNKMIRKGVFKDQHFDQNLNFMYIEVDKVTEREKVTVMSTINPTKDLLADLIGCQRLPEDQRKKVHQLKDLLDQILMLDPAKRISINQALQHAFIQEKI
pIC50: −log10 of the molar value.
measured.metric: pIC50

Cc1cn(CCN2CCN(c3ccccc3-c3cc(C#N)cc(C(=O)NCCCN4CCCC4)c3)CC2)c2ccccc12 [LLY-507]    < 4.70

====

# experimental.target: hERBB4 (Homo sapiens)
measured.metric: IC50

Cc1cn(CCN2CCN(c3ccccc3-c3cc(C#N)cc(C(=O)NCCCN4CCCC4)c3)CC2)c2ccccc12    > 20 µM

====

# experimental.target: hSRPK2 (Homo sapiens)
# Sequence (P78362 whole entry): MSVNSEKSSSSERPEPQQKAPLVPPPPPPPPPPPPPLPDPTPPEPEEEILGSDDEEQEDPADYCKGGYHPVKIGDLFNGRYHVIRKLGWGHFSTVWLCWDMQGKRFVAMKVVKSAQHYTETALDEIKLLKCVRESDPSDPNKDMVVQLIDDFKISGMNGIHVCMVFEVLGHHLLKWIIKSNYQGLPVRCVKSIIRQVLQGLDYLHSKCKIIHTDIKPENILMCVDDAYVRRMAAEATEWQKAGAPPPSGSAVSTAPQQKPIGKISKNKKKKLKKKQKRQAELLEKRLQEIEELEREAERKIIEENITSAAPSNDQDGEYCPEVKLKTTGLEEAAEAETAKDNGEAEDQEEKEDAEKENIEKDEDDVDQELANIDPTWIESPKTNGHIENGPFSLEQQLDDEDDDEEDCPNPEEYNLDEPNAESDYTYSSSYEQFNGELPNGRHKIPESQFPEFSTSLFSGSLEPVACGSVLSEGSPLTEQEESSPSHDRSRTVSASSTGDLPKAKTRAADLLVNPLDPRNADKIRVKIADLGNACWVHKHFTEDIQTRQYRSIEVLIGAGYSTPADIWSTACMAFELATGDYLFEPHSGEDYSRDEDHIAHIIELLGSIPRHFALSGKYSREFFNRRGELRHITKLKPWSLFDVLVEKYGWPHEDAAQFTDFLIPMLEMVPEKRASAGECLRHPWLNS
measured.metric: IC50

Cc1cn(CCN2CCN(c3ccccc3-c3cc(C#N)cc(C(=O)NCCCN4CCCC4)c3)CC2)c2ccccc12    > 20 µM

====

# experimental.target: UniProt:Q9BQI3
measured.metric: IC50

Cc1cn(CCN2CCN(c3ccccc3-c3cc(C#N)cc(C(=O)NCCCN4CCCC4)c3)CC2)c2ccccc12    > 20 µM

====

# experimental.target: hEGFR(E746-A750del) (Homo sapiens, UniProt P00533, DEL746-750)
# Sequence (P00533 with tags, fused parts or gaps DEL746-750): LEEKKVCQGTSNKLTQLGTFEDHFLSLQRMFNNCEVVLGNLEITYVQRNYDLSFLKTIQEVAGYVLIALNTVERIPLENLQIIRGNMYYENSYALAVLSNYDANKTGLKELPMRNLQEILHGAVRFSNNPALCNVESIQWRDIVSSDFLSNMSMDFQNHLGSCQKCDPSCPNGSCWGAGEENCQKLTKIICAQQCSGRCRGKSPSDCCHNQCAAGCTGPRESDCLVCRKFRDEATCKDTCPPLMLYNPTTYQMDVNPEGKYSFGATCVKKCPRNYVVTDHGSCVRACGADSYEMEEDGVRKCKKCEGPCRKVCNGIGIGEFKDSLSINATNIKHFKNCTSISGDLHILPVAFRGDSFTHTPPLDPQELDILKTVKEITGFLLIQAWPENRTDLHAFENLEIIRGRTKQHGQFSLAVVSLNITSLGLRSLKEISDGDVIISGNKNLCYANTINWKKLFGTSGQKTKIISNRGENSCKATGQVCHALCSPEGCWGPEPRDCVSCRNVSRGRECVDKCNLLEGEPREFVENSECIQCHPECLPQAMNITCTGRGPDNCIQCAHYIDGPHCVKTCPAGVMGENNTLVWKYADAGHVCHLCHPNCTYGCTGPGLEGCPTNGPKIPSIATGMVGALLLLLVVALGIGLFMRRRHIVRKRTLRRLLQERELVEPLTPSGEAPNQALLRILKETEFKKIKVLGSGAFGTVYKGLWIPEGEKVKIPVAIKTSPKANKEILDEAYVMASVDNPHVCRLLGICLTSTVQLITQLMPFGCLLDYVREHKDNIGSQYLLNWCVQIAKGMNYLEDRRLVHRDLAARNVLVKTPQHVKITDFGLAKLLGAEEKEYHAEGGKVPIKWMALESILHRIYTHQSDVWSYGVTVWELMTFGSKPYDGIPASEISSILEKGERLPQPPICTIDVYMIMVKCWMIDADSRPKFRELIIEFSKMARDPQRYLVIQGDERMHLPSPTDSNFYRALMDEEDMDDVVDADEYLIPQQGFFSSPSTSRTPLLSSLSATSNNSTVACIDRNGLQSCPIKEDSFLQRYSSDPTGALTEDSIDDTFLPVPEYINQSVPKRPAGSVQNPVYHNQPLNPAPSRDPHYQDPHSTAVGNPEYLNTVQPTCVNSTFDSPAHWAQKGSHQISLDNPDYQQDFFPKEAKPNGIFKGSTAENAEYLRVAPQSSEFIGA
# protocol.notes: KINOMEscan
pIC50: −log10 of the molar value.
measured.metric: pIC50

Cc1cn(CCN2CCN(c3ccccc3-c3cc(C#N)cc(C(=O)NCCCN4CCCC4)c3)CC2)c2ccccc12    < 4.70

====

# experimental.target: hMEK1 (Homo sapiens, UniProt Q02750)
# Sequence (Q02750 whole entry): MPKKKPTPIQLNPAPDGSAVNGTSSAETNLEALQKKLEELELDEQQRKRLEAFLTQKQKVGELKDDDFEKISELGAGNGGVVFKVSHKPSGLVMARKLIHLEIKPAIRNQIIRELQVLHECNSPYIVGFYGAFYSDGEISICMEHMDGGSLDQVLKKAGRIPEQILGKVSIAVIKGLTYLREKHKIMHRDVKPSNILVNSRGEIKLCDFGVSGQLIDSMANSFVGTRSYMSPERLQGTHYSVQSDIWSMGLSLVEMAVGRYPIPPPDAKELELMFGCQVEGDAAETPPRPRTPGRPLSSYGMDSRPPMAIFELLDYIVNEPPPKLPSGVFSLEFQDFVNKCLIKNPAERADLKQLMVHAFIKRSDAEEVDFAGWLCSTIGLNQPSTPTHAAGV
measured.metric: IC50

Cc1cn(CCN2CCN(c3ccccc3-c3cc(C#N)cc(C(=O)NCCCN4CCCC4)c3)CC2)c2ccccc12    > 20 µM

====

# experimental.target: hCSNK1A1 (Homo sapiens)
# Sequence (P48729 whole entry): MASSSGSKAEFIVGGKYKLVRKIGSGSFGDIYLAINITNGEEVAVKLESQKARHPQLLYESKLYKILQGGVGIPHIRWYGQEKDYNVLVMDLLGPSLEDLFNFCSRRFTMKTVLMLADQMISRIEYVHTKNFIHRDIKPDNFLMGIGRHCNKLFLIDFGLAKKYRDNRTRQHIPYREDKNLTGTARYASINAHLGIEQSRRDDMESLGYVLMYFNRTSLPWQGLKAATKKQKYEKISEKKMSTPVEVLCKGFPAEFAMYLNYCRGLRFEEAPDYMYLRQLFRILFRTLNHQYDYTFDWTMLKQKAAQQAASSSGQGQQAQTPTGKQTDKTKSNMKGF
measured.metric: IC50

Cc1cn(CCN2CCN(c3ccccc3-c3cc(C#N)cc(C(=O)NCCCN4CCCC4)c3)CC2)c2ccccc12    > 20 µM

====

# experimental.target: UniProtKB Q13131
# Sequence (Q13131 whole entry): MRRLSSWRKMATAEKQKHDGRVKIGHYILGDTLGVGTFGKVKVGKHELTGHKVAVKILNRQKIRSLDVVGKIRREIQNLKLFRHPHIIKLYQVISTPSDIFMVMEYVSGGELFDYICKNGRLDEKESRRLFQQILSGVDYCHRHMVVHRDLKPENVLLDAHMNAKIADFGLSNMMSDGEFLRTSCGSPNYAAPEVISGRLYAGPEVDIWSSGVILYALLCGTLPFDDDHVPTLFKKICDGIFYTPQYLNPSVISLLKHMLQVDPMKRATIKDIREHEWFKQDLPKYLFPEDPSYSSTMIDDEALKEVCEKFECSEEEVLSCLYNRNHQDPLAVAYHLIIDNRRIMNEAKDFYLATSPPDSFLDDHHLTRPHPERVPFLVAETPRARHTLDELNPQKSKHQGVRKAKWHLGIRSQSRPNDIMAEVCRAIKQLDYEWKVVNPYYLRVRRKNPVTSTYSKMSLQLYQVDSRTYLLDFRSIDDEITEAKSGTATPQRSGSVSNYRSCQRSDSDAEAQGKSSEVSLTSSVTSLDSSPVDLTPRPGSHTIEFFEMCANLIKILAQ
pIC50: −log10 of the molar value.
measured.metric: pIC50

Cc1cn(CCN2CCN(c3ccccc3-c3cc(C#N)cc(C(=O)NCCCN4CCCC4)c3)CC2)c2ccccc12    < 4.70

====

# experimental.target: hFLT3 (Homo sapiens, UniProt P36888)
measured.metric: IC50

Cc1cn(CCN2CCN(c3ccccc3-c3cc(C#N)cc(C(=O)NCCCN4CCCC4)c3)CC2)c2ccccc12    > 20 µM

====

# experimental.target: hERK1 (Homo sapiens)
# Sequence (P27361 whole entry): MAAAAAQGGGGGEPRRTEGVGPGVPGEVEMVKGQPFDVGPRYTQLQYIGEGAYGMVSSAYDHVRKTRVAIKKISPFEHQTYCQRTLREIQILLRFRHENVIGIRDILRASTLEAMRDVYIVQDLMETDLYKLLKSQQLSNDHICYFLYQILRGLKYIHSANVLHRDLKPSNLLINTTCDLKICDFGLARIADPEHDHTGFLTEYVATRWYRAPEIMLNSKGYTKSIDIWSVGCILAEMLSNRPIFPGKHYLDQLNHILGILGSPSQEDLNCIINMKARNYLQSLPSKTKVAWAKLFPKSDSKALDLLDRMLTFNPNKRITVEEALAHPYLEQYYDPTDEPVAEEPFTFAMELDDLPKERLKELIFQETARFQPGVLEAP
measured.metric: IC50

Cc1cn(CCN2CCN(c3ccccc3-c3cc(C#N)cc(C(=O)NCCCN4CCCC4)c3)CC2)c2ccccc12 [LLY-507]    > 20 µM

====

# experimental.target: hFLT3(D835H) (Homo sapiens, UniProt P36888, D835H)
# Sequence (P36888 27-993 D835H): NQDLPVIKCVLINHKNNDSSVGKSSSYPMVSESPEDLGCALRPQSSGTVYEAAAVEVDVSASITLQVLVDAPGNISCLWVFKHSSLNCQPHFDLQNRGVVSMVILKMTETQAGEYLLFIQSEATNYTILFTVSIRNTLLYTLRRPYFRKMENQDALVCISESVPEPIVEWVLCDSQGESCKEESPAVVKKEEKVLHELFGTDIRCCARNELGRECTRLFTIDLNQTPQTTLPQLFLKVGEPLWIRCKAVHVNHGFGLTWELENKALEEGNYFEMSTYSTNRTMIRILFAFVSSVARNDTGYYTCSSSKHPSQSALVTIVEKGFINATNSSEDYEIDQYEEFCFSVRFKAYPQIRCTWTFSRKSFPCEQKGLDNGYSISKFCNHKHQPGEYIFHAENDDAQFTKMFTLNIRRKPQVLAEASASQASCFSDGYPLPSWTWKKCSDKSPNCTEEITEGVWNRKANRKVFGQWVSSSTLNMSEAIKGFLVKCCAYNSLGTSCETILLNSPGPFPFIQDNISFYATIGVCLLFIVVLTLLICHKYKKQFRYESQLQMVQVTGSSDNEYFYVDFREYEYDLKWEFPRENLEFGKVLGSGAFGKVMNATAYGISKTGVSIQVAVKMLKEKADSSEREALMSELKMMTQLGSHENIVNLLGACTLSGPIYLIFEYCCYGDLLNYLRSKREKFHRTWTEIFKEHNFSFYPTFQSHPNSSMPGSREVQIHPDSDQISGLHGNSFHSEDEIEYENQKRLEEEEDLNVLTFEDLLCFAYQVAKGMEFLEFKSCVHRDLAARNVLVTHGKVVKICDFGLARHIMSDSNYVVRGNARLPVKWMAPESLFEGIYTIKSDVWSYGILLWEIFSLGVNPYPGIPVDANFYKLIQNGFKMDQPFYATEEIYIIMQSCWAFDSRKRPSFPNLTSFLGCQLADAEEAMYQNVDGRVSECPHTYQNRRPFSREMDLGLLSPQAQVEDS
# protocol.notes: KINOMEscan
measured.metric: IC50

Cc1cn(CCN2CCN(c3ccccc3-c3cc(C#N)cc(C(=O)NCCCN4CCCC4)c3)CC2)c2ccccc12    > 20 µM
